The values you see were collected from ChEMBL document CHEMBL4396974.

- assayOverview: Cytotoxicity against human PANC1 cells at 10 uM measured after 48 hrs by sulforhodamine B assay relative to control
- Type: cell-based, PANC-1
- experimentalContext: read-out: INH
recordedEndpoint: cytotoxicity at 48 h, 10 µM

IN: # lookup: cytotoxicity at 48 h, 10 µM of COc1nc2ccc(Br)cc2cc1C(c1ccccc1)n1cc(CCO)nn1 (stereo unspecified)
OUT: 19.8%

IN: Next up: COc1nc2ccc(Br)cc2cc1C(c1ccccc1)n1cc(CCCCCO)nn1 (stereo unspecified)
OUT: 19.6%

IN: Next up: CCCc1cn(C(c2ccccc2)c2cc3cc(Br)ccc3nc2OC)nn1 (stereo unspecified)
OUT: 11.3%

IN: Next up: CCCCCCc1cn(C(c2ccccc2)c2cc3cc(Br)ccc3nc2OC)nn1 (stereo unspecified)
OUT: 6.08%

IN: Next up: COc1nc2ccc(Br)cc2cc1C(c1ccccc1)n1cc(-c2ccccc2F)nn1 (stereo unspecified)
OUT: 14.7%

IN: Next up: CCCCCCCCc1cn(C(c2ccccc2)c2cc3cc(Br)ccc3nc2OC)nn1 (stereo unspecified)
OUT: 12.1%

IN: Next up: CCCCCc1cn(C(c2ccccc2)c2cc3cc(Br)ccc3nc2OC)nn1 (stereo unspecified)
OUT: 5.07%

IN: Next up: CCCCCCCc1cn(C(c2ccccc2)c2cc3cc(Br)ccc3nc2OC)nn1 (stereo unspecified)
OUT: 16.6%

IN: Next up: CCOC(=O)c1cn(C(c2ccccc2)c2cc3cc(Br)ccc3nc2OC)nn1 (stereo unspecified)
OUT: 15.4%

IN: Next up: COc1nc2ccc(Br)cc2cc1C(c1ccccc1)n1cc(-c2ccc(F)cc2)nn1 (stereo unspecified)
OUT: 14.9%

IN: Next up: COc1nc2ccc(Br)cc2cc1C(c1ccccc1)n1cc(-c2cccc(F)c2)nn1 (stereo unspecified)
OUT: 15.5%

----------
- assayOverview: Cytotoxicity against human PC3 cells at 10 uM measured after 48 hrs by sulforhodamine B assay relative to control
- Type: cell-based, PC-3
- experimentalContext: read-out: INH
recordedEndpoint: cytotoxicity at 48 h, 10 µM

IN: # lookup: cytotoxicity at 48 h, 10 µM of COc1nc2ccc(Br)cc2cc1C(c1ccccc1)n1cc(-c2ccccc2)nn1 (centres undefined)
OUT: 5.97%

IN: Next up: COc1nc2ccc(Br)cc2cc1C(c1ccccc1)n1cc(CCCCCO)nn1 (centres undefined)
OUT: 12.9%

IN: Next up: CCCCc1cn(C(c2ccccc2)c2cc3cc(Br)ccc3nc2OC)nn1 (centres undefined)
OUT: 5.54%

IN: Next up: COc1nc2ccc(Br)cc2cc1C(c1ccccc1)n1cc(CCO)nn1 (centres undefined)
OUT: 15.5%

----------
- assayOverview: Cytotoxicity against human SKOV3 cells at 10 uM measured after 48 hrs by sulforhodamine B assay relative to control
- Format: cell-based, SK-OV-3
- experimentalContext: read-out: INH
Assign cytotoxicity at 48 h, 10 µM to each entry below.
All answers are understood in %, so give the number only.

IN: # lookup: cytotoxicity at 48 h, 10 µM of COc1nc2ccc(Br)cc2cc1C(c1ccccc1)n1cc(CCO)nn1 (stereo unspecified)
OUT: 8.46

IN: Next up: CCCc1cn(C(c2ccccc2)c2cc3cc(Br)ccc3nc2OC)nn1 (stereo unspecified)
OUT: 11.2

IN: Next up: COc1nc2ccc(Br)cc2cc1C(c1ccccc1)n1cc(-c2ccc(OC(F)(F)F)cc2)nn1 (stereo unspecified)
OUT: 14.8

IN: Next up: COc1nc2ccc(Br)cc2cc1C(c1ccccc1)n1cc(-c2ccccc2F)nn1 (stereo unspecified)
OUT: 7.33

IN: Next up: CCOC(=O)c1cn(C(c2ccccc2)c2cc3cc(Br)ccc3nc2OC)nn1 (stereo unspecified)
OUT: 2.01

IN: Next up: COc1nc2ccc(Br)cc2cc1C(c1ccccc1)n1cc(CCCCCO)nn1 (stereo unspecified)
OUT: 8.69
